The measured values listed here are drawn from ChEMBL document CHEMBL4888484.

# System: Plasmodium falciparum
# Measurement notes: Confirmatory screen in NF54 nanoGlo assay, in single point, at 2uM, 72h
# Assay type: functional, Erythrocyte
# Assay conditions: timepoint 72 hour
In all, about 4,800 compounds went through this assay and about 420 (8.8%) showed an effect of 50% or more. The sample as a whole holds a higher share of strong results than the screen did.
Attribute: % Inhibition
Readout type: % Inhibition (%)

- Compound: "CCCn1cc(CNc2nnc(C(C)(C)C)o2)cn1"
  Readout type: "% Inhibition"
  Endpoint unit: "%"
  Reported: -5
- Compound: "COc1cc(Cl)c(C)cc1NC(=O)c1cc(=O)n(-c2ccc(C)cc2)[nH]1"
  Readout type: "% Inhibition"
  Endpoint unit: "%"
  Reported: -8
- Compound: "O=C(NC1CCN(Cc2ccco2)CC1)c1ccco1"
  Readout type: "% Inhibition"
  Endpoint unit: "%"
  Reported: -9
- Compound: "CC(C)N1CCO[C@H](C(=O)Nc2c[nH]nc2-c2ccccc2)C1"
  Readout type: "% Inhibition"
  Endpoint unit: "%"
  Reported: -5
- Compound: "Cc1cccc(C(=O)Nc2nc3cc4sc(NC(=O)c5cccc(C)c5)nc4cc3s2)c1"
  Readout type: "% Inhibition"
  Endpoint unit: "%"
  Reported: 7
- Compound: "CC[C@](C)(NCCc1c[nH]c2ccccc12)c1nnnn1CCOC"
  Readout type: "% Inhibition"
  Endpoint unit: "%"
  Reported: -2
- Compound: "N/C(CC(=O)Nc1cccc(Cl)c1)=N/O"
  Readout type: "% Inhibition"
  Endpoint unit: "%"
  Reported: -4
- Compound: "CCCOc1cccc2c(NC3CCN(CCOC)CC3)ccnc12"
  Readout type: "% Inhibition"
  Endpoint unit: "%"
  Reported: 22
- Compound: "C[C@@H](CN)N(C)c1ccnc2cc(Br)cnc12"
  Readout type: "% Inhibition"
  Endpoint unit: "%"
  Reported: 98
- Compound: "c1cncc(CN2CCN(C3CCCCCC3)CC2)c1"
  Readout type: "% Inhibition"
  Endpoint unit: "%"
  Reported: 3
- Compound: "CCOC(=O)N1CCN(C(=O)C2c3ccccc3C(=O)N(C3CCCCC3)C2c2ccc(OC)cc2)CC1 (stereo unspecified)"
  Readout type: "% Inhibition"
  Endpoint unit: "%"
  Reported: -4

----------
# Tested on: Plasmodium falciparum
# Measurement notes: Confirmatory screen in NF54 nanoGlo assay, in single point, at 2uM, 72h
# Assay type: functional, Erythrocyte
# Assay conditions: timepoint 72 hour
Screen size: about 4,800 compounds; about 420 (8.8%) showed an effect of 50% or more. Shown is part of a subset that was picked to be rich in strong results.

- Smiles text: "CCN(CC)c1ncnc(N(C)Cc2ccccc2)c1N"
  % Inhibition [%]: 2
- Smiles text: "C=CCN1CCN(c2nccn3nc(-c4ccc(Cl)cc4)cc23)CC1"
  % Inhibition [%]: -3
- Smiles text: "Cc1ccccc1NC(=O)N1CCN(C(=O)c2nonc2N)CC1"
  % Inhibition [%]: -7
- Smiles text: "Cc1cnc(CNC(=O)Nc2nnc3ccccn23)s1"
  % Inhibition [%]: -13
- Smiles text: "COc1cc(NC(=O)c2ccccc2Cl)cc(S(=O)(=O)c2ccc(Cl)cc2)c1"
  % Inhibition [%]: -15
- Smiles text: "COC[C@@H]1CCCN1c1ccc2c(c1)CNCC(=O)N1CC[C@@H](CC(=O)NCCN3CCOCC3)[C@@H](/C=C/CO2)C1"
  % Inhibition [%]: -13
- Smiles text: "Cc1ccc2c(c1)ncc1c(-c3ccccc3)nn(-c3ccc(F)cc3)c12"
  % Inhibition [%]: -5
- Smiles text: "COc1ccccc1C(=O)NC1=NN2C(=NC(c3ccc(Cl)cc3)=C[C@H]2c2ccc(Cl)cc2)N1"
  % Inhibition [%]: 94
- Smiles text: "Cc1cc(C(=O)NC(C2CC2)C2CC2)c(C)o1"
  % Inhibition [%]: -2
- Smiles text: "COc1ccccc1C(=O)NC1=C(C)Nc2ncnn2[C@H]1c1c[nH]c2ccccc12"
  % Inhibition [%]: -5

----------
# Tested on: Plasmodium falciparum
# Measurement notes: Confirmatory screen in NF54 nanoGlo assay, in single point, at 2uM, 72h
# Format: functional, Erythrocyte
# Assay conditions: timepoint 72 hour
Among all 4,800 compounds or so, about 420 (8.8%) showed an effect of 50% or more. Only a selection was taken, and strong results are over-represented in it overall.
Readout type: % Inhibition

- Smiles text: "COc1ccc(-c2cc(-c3ccccc3)nc(N3CCC(C)CC3)n2)cc1"
  Target system: "Plasmodium falciparum"
  Reported: "50%"
- Smiles text: "O=C(NCc1ccco1)c1cc2c(Cl)ccc3c2n1CCO3"
  Target system: "Plasmodium falciparum"
  Reported: "-1%"
- Smiles text: "CN(Cc1ccc(F)c(F)c1)S(=O)(=O)C[C@H]1CCN(C(=O)OCc2ccccc2)C1"
  Target system: "Plasmodium falciparum"
  Reported: "-10%"
- Smiles text: "Cc1c(C(=O)NC[C@](C)(O)c2ccc(F)cc2F)cnn1C"
  Target system: "Plasmodium falciparum"
  Reported: "7%"
- Smiles text: "COCCCn1c(=O)c2ccccc2n(CC(=O)N2CCc3ccccc32)c1=O"
  Target system: "Plasmodium falciparum"
  Reported: "-8%"
- Smiles text: "O=C(Cc1ccc(Cl)cn1)Nc1ccnn1[C@H]1CCCc2ccccc21"
  Target system: "Plasmodium falciparum"
  Reported: "-10%"

----------
# System: Plasmodium falciparum
# Measurement notes: Confirmatory screen in NF54 nanoGlo assay, in single point, at 2uM, 72h
# Assay type: functional, Erythrocyte
# Assay conditions: timepoint 72 hour
In all, about 4,800 compounds went through this assay and about 420 (8.8%) showed an effect of 50% or more. Many of the other results were omitted from the sample, so strong results are more common in it than they were.
% Inhibition for assorted compounds

- Compound: "Cc1cc2[nH]ncc2cc1NC(=O)c1ccco1"
  Endpoint unit: "%"
  % Inhibition: -8
- Compound: "O=C(c1sc2ccccc2c1Cl)n1nnc2ccccc21"
  Endpoint unit: "%"
  % Inhibition: -8
- Compound: "CC[C@@H](CCNS(=O)(=O)c1cn(C(F)F)nc1C)n1ccc(C(F)(F)F)n1"
  Endpoint unit: "%"
  % Inhibition: -8
- Compound: "CCn1cc(NC(=O)CCn2ncc3c(Cl)cccc32)cn1"
  Endpoint unit: "%"
  % Inhibition: -6
- Compound: "COc1ccc(C)c2sc(N(CCCn3ccnc3)C(=O)Cc3ccc(F)cc3)nc12"
  Endpoint unit: "%"
  % Inhibition: 79
- Compound: "Cc1ccc(-c2cn3c4ccccc4nc3n2CCN2CCN(C)CC2)cc1"
  Endpoint unit: "%"
  % Inhibition: 2
- Compound: "O=C(c1ccc2c(c1)OCCCO2)N1CCCCC1"
  Endpoint unit: "%"
  % Inhibition: -3
- Compound: "O=C(NCCN1CCCC1)c1ccc2c(c1)OCCO2"
  Endpoint unit: "%"
  % Inhibition: -12
- Compound: "Cc1cccc(NC(=O)c2cc(C)nc3c2c(C)nn3-c2ccc(F)cc2)c1"
  Endpoint unit: "%"
  % Inhibition: -2
- Compound: "O=C(OCC(=O)N1CCN(Cc2ccccc2)CC1)c1nccc2ccccc12"
  Endpoint unit: "%"
  % Inhibition: 1
- Compound: "CCc1nc(NS(=O)(=O)c2cc(Cl)sc2Cl)no1"
  Endpoint unit: "%"
  % Inhibition: -4
- Compound: "CCCCC1NC(=O)N([C@@H]2CCC(=O)N[C@H]2c2ccccc2)C1=O (some centres undefined)"
  Endpoint unit: "%"
  % Inhibition: 2
- Compound: "CN(c1ccc(Cl)cn1)S(=O)(=O)c1ccc2ncccc2c1"
  Endpoint unit: "%"
  % Inhibition: -22
- Compound: "CCC(=O)N1CCc2sc(C(=O)NC3CCN(Cc4ccccc4)CC3)cc2C1"
  Endpoint unit: "%"
  % Inhibition: -5
- Compound: "Oc1cc(CC[C@H]2CCCCN2)cc(-c2cnc3ccccc3n2)c1"
  Endpoint unit: "%"
  % Inhibition: 73
- Compound: "O=C(Cc1cccs1)NC1CCN(c2nnc3ccc(Cl)cn23)CC1"
  Endpoint unit: "%"
  % Inhibition: -12
- Compound: "Cc1nc2ccccc2n1CCC(=O)N1CCN(Cc2ccc3c(c2)OCO3)CC1"
  Endpoint unit: "%"
  % Inhibition: 2
- Compound: "Cc1nc[nH]c1CN1CCN(C(=O)CCC(C)C)[C@H]2CS(=O)(=O)C[C@H]21"
  Endpoint unit: "%"
  % Inhibition: 0
- Compound: "COc1ccc(-c2noc(Cn3c(=O)c4ccccc4n(CC(=O)Nc4cc(Cl)ccc4C)c3=O)n2)cc1"
  Endpoint unit: "%"
  % Inhibition: -3
- Compound: "Cc1cc2nc(C)c(=O)n(CCC(=O)NCCCN(C)C3CCCCC3)c2cc1C"
  Endpoint unit: "%"
  % Inhibition: 0
- Compound: "Cc1nc2c(Oc3ccccc3)cccc2c2c1CCN2c1ccc(OC(F)(F)F)cc1"
  Endpoint unit: "%"
  % Inhibition: -17
- Compound: "COC1CCCCC1NC(=O)c1ccc(-c2noc(C(F)(F)F)n2)cc1 (centres undefined)"
  Endpoint unit: "%"
  % Inhibition: -1
- Compound: "COCCCn1c(NS(=O)(=O)c2ccc3ccccc3c2)c(S(=O)(=O)c2ccc(C)cc2)c2nc3ccccc3nc21"
  Endpoint unit: "%"
  % Inhibition: 56
- Compound: "COCCCN(Cc1c(C)nn(-c2cccc(F)c2)c1N1CCN(C)CC1)S(=O)(=O)c1ccc2ccccc2c1"
  Endpoint unit: "%"
  % Inhibition: 7
- Compound: "CC(=O)N1CCc2cc(-c3ccc(C(=O)NCCC(C)C)cc3)ccc21"
  Endpoint unit: "%"
  % Inhibition: 2
- Compound: "CCCCN1C(=O)[C@H]2[C@H]([C@H](O)c3ccc(Cl)cc3)N[C@@]3(C(=O)Nc4ccccc43)[C@H]2C1=O"
  Endpoint unit: "%"
  % Inhibition: 25
- Compound: "O=C(C[C@H]1CCN(C(=O)c2ccc(F)cc2)C1)NC1CC1"
  Endpoint unit: "%"
  % Inhibition: -11
- Compound: "CCN1CCN(c2cccc(NC(=O)c3cc(F)cc4c(=O)c5cc(F)ccc5[nH]c34)c2)CC1"
  Endpoint unit: "%"
  % Inhibition: 97
- Compound: "CCOC(=O)c1sc(NC)nc1C(F)(F)F"
  Endpoint unit: "%"
  % Inhibition: -19
- Compound: "Cc1ncc(C(=O)Nc2cc3c(=O)[nH]cnc3cc2F)c(C2CC2)n1"
  Endpoint unit: "%"
  % Inhibition: 3
- Compound: "C[n+]1ccc(-c2ncc(-c3ccccc3)o2)c2ccccc21"
  Endpoint unit: "%"
  % Inhibition: 75
- Compound: "CC1(C)CN(C(=O)CN2CCOCC2=O)C2CCCC21 (centres undefined)"
  Endpoint unit: "%"
  % Inhibition: -16
- Compound: "Cc1nn(C)cc1NC(=O)N[C@H]1CCCC[C@@H]1O"
  Endpoint unit: "%"
  % Inhibition: -9
- Compound: "CC(CNC(=O)NCC(O)C1CC1)c1ccc(F)c(F)c1 (centres undefined)"
  Endpoint unit: "%"
  % Inhibition: 3
- Compound: "O=C(Nc1nc2ccccc2[nH]1)C1CCN(c2cc3c(nn2)CCC3)CC1"
  Endpoint unit: "%"
  % Inhibition: 5
- Compound: "Cc1ccc(-c2nc(CNC(=O)C[C@H]3CNCCO3)[nH]c2-c2ccccn2)cc1"
  Endpoint unit: "%"
  % Inhibition: 22
- Compound: "O=C(Nc1ccc(Cl)cc1)c1cccc(N2C(=O)C3CCC(c4ccccc4)CC3C2=O)c1 (centres undefined)"
  Endpoint unit: "%"
  % Inhibition: -5
- Compound: "NC(=O)c1ccccc1NC(=O)C1CCN(c2cc(C3CC3)ncn2)CC1"
  Endpoint unit: "%"
  % Inhibition: 53
- Compound: "O=C(O)c1cc(N2CCC(Cc3ccccc3)CC2)ccc1NC(=O)C1CCC1"
  Endpoint unit: "%"
  % Inhibition: -14
- Compound: "CCOc1cc(=O)c(C(=O)N2CCC(C(N)=O)CC2)nn1-c1ccc(F)cc1"
  Endpoint unit: "%"
  % Inhibition: -6
- Compound: "CN(C)Cc1ccc(NC(=O)c2cc(F)cc3c(=O)c4cc(F)ccc4[nH]c23)cc1"
  Endpoint unit: "%"
  % Inhibition: 79
- Compound: "CC(C)CCNC(=O)c1cnn2c3c(cnc12)CCCC3"
  Endpoint unit: "%"
  % Inhibition: -6
- Compound: "CCN1CCN(c2cccc(NC(=O)c3ccc4[nH]c5ccccc5c(=O)c4c3)c2)CC1"
  Endpoint unit: "%"
  % Inhibition: 93
- Compound: "COc1ccc(OCC(=O)Nc2ccc(N3CCn4c(nc5ccccc54)C3)cc2Cl)cc1"
  Endpoint unit: "%"
  % Inhibition: -8
